test system: TK-10; test: NCI tumour cell line growth inhibition, 48 h
Activity calls are given as the source filed them. No stated cut-off is given here; in the data, active = GI50 up to about 1.1 µM and inactive = higher. Where a SMILES comes first, the peptide text is derived from it. The star is where a group is joined. Boc = CC(C)(C)OC(=O)*
Entries annotated with measured GI50

Record excerpt, results attached:
- compound: "CC1(C)C(=NN=C(N)N)C(C)(C)C1=NN=C(N)N"
  target system: "TK-10"
  test value: "> 100 µM (inactive)"
- compound: "Cc1cccc(C2ON=C(c3ccccc3)N2C23CC4CC(CC(C4)C2)C3)c1 (stereo not drawn)"
  target system: "TK-10"
  test value: "> 10 µM (inactive)"
- compound: "C=C1c2[nH]c3c([N+](=O)[O-])c(OC)ccc3c2CCN1C(C)=O"
  target system: "TK-10"
  test value: "> 100 µM (inactive)"
- compound: "CCCNC(/C=C/[Si](C)(C)C)CO.CCCNCC(O)/C=C/[Si](C)(C)C (stereo not drawn)"
  target system: "TK-10"
  test value: "> 100 µM (inactive)"
- compound: "CC1=C(C(=O)OC(C)C)C(c2ccccc2C(F)(F)F)C(C(=O)OC(CO[N+](=O)[O-])CO[N+](=O)[O-])=C(C)N1 (stereo not drawn)"
  target system: "TK-10"
  test value: "23.9 µM (inactive)"
- compound: "CCO/C=C\\C12CCCC1NC(c1ccccc1)(c1ccccc1)O2 (stereo not drawn)"
  target system: "TK-10"
  test value: "31.5 µM (inactive)"

Would you kindly share the measured GI50 for COC(=O)CNC(=O)C(Cc1ccccc1)NC(=O)C(CCSC)NC(=O)C(Cc1ccc(O)cc1)NC(=O)OC(C)(C)C (stereo not drawn) (Boc-YMFG-OMe; configuration not given here) ?
> 100 µM (inactive)

Look up GI50 for this compound: `Cc1ccccc1NC(=O)O/N=C(\Cl)C(C)C`
3.94 µM (inactive)

----------
# key: entry, value: GI50
test system: SK-MEL-2; experiment: NCI tumour cell line growth inhibition, 48 h
Calls of active or inactive are those of the source. Cut-off read from the data, not from the text of the source: active = GI50 up to about 1.1 µM and inactive = higher.

The following compounds have reported results that may help.
- compound: "C=C(C(=O)OC)c1cc2ccccc2n1S(=O)(=O)c1ccccc1"
  GI50: "2.53 µM (inactive)"
- compound: "CC(=O)N1N=C(c2c(O)ccc3ccccc23)CC1C(=O)c1ccco1 (configuration not stated)"
  GI50: "16.6 µM (inactive)"
- compound: "COCCNC1CCC(=O)c2[nH]c3ccccc3c21 (configuration not stated)"
  GI50: "> 100 µM (inactive)"
- compound: "COC(=O)C1(c2ccc(N(C)C)cc2OC)CCCN(C(=O)Oc2ccccc2[N+](=O)[O-])CCc2c1[nH]c1ccccc21 (configuration not stated)"
  GI50: "> 100 µM (inactive)"
- compound: "CC(O[Si](C)(C)C)C1C=CC(C)n2c(=O)n(-c3ccccc3)c(=O)n21 (configuration not stated)"
  GI50: "> 100 µM (inactive)"

Return GI50 measured with SK-MEL-2 given this compound: NC1=NN(c2ccccc2)C2(O)c3ccncc3C3=NN(c4ccccc4)C(=O)C132 (configuration not stated)
> 100 µM (inactive)

Test system SK-MEL-2; read-out GI50; what value for CCOC(=O)CCC(C(=O)OCC)n1nnc2cc(Nc3c(C)[n+]([O-])c4cc(Cl)ccc4[n+]3[O-])ccc21 (configuration not stated) ?
77.8 µM (inactive)

----------
system: Malme-3M; test: NCI tumour cell line growth inhibition, 48 h
The source made the active and inactive calls. No stated cut-off is given here; in the data, active = GI50 up to about 1.1 µM and inactive = higher.
measurement label: GI50

Solved entries (count: 2):
- smiles notation: "CC1(C)C(=NN=C(N)N)C(C)(C)C1=NN=C(N)N"
  measurement label: "GI50"
  test value: "> 100 µM (inactive)"
- smiles notation: "O=C(c1ccccc1)N1CCc2c([nH]c3ccccc23)C1"
  measurement label: "GI50"
  test value: "35.8 µM (inactive)"

Now for a further compound.
Which measured GI50 belongs to `Brc1ccccc2cc(-c3ccccc3)nc1-2` , tested on Malme-3M?
3.01 µM (inactive)

----------
tested on: OVCAR-8; assay: NCI tumour cell line growth inhibition, 48 h
The source made the active and inactive calls. No stated cut-off is given here; in the data, active = GI50 up to about 1.1 µM and inactive = higher.
Item-by-item account of GI50

What does the data say about its GI50? Entry: `CSc1ccc(/C=C2\N=C(c3ccccc3)N(c3nc4cc(Cl)c(F)cc4s3)C2=O)cc1`
20 µM (inactive)

Could you share which GI50 value was measured for `N=C(N)c1ccc(OCCCCCOc2ccc(C(=N)N)cc2)cc1` ?
7.85 µM (inactive)

Looking for the measured GI50 of `COc1cccc(CCCNC(=O)Cc2ccccc2CO)c1` , can you help?
> 100 µM (inactive)

Look up GI50 for this compound: Cc1ccc(S(=O)(=O)NC(=O)C#CCOC2CCCCO2)cc1 (stereo unspecified)
> 100 µM (inactive)

What value of GI50 has been reported for the following compound? CC(C)(C)[Si](C)(C)OCC#C[C@@]1(O)CCCCC1CC(Sc1ccccc1)Sc1ccccc1 (stereo partly specified)
16.5 µM (inactive)

Report GI50 for O=C1C(C(O)(C(F)(F)F)C(F)(F)F)CCC1C(O)(C(F)(F)F)C(F)(F)F (stereo unspecified) please.
8.75 µM (inactive)

What does the data say about its GI50? Entry: `CC(C)(C)C1=CC(=N/N=c2\scc(-c3ccccc3)n2-c2ccccc2)C=C(C(C)(C)C)C1=O`
> 100 µM (inactive)

For CC1SCCc2nc3ccccc3n21 (stereo unspecified) , what is its reported GI50?
> 100 µM (inactive)

----------
system: HL-60; test: NCI tumour cell line growth inhibition, 48 h
Active and inactive are the calls of the source. Cut-off read from the data, not from the text of the source: active = GI50 up to about 1.1 µM and inactive = higher.
Let's look at some compounds and their measured GI50.

Take a look at these entries with their results.
- compound: "CCN(CC)CCN1C(=O)c2c(c(-c3ccccc3)c3ccccc3c2-c2ccccc2)C1=O"
  target system: "HL-60"
  measurement label: "GI50"
  test value: "> 100 µM (inactive)"
- compound: "CN(C)/N=N/c1nc2c(c(=O)n(C)c(=O)n2C)n1CC1CO1 (stereo not drawn)"
  target system: "HL-60"
  measurement label: "GI50"
  test value: "4 µM (inactive)"

Entry `O=C1C(Cl)=C(N2CCC[C@H]2CO)C(=O)c2c(O)ccc(O)c21` , system HL-60: what GI50 was measured?
0.0724 µM (active)

So what GI50 did `CCOC(=O)/C(C(=O)Nc1ccc(Cl)cc1)=C(/N)N1CCCC1` get with HL-60?
> 100 µM (inactive)

Request - read-out GI50 | tested on HL-60 | compound `CCC1(CC)C(=O)N(C(=O)c2cc(OC)c(OC)c(OC)c2)N(C(=O)c2cc(OC)c(OC)c(OC)c2)C1=O`
28.5 µM (inactive)

Please tell me: GI50 of CC(=O)NC(Cc1c[nH]c2ccccc12)C(=O)O (stereo not drawn) , system HL-60?
> 100 µM (inactive)

What GI50 appears in the records for this compound with HL-60? `COc1ccccc1C1=C2C(=O)N(C)C(c3ccccc3OC)=C2C(=O)N1C`
> 100 µM (inactive)

// map `COc1ccc(Sc2ccccc2N)cc1` to recorded GI50 (system: HL-60)
18.8 µM (inactive)

----------
test system: HT-29; test: NCI tumour cell line growth inhibition, 48 h
Active and inactive are the calls of the source. Rule as the data show it: active = GI50 up to about 1.1 µM and inactive = higher.
measurement label: GI50

Sample answers from the record:
- compound: "O=C(Cc1ccccc1)NN1C(=O)C(Cl)C1c1ccc(O)cc1 (stereo unspecified)"
  GI50: "> 100 µM (inactive)"
- compound: "O=C(N[C@H]1CCC[C@H]1C(=O)Nc1ccc(C(F)(F)F)cc1)OCc1ccccc1"
  GI50: "> 100 µM (inactive)"
- compound: "O=C(NCCCCl)c1c(O)c2ccccc2[nH]c1=O"
  GI50: "> 100 µM (inactive)"
- compound: "Cc1nnc2ccccc2c1O"
  GI50: "> 100 µM (inactive)"

Need GI50 of `Clc1ccc(Nc2nnc(CNc3ccc(-c4nnc(Nc5ccc(Cl)cc5)o4)cc3)o2)cc1` , thanks.
12.2 µM (inactive)

Item under review: `COc1cc2c(oc(=O)c3c4occc4cc(OC)c23)c2cccc(O)c12` . Reported GI50?
> 100 µM (inactive)

I am curious: what GI50 value has been reported for `O=S(=O)(/C=C/C(=C/c1ccccc1)S(=O)(=O)c1ccccc1)c1ccccc1` ?
1.73 µM (inactive)

# input compound: `C/C(=N/NC(N)=S)c1ccc[nH]1` ; wanted: its GI50
> 100 µM (inactive)

Requested field: GI50. Item: `CC1=NN(c2nc(N)nc(COCc3nc(N)nc(N4N=C(C)CC4(C)C)n3)n2)C(C)(C)C1`
> 100 µM (inactive)

----------
tested on: SNB-75; assay: NCI tumour cell line growth inhibition, 48 h
Calls of active or inactive are those of the source. Rule as the data show it: active = GI50 up to about 1.1 µM and inactive = higher. Where a SMILES comes first, the peptide text is derived from it. [ ]: non-standard residue; d: D form. The star is where a group is joined. ξ: configuration not given here. ξD = NC(CC(=O)O)C(=O)O; Ac3c = NC1(C(=O)O)CC1; Boc = CC(C)(C)OC(=O)*; OBn = c1ccc(CO*)cc1
Quick list: GI50 per entry.

Before answering, review these 8 worked examples.
- molecule: "O=C(CN1C(=O)c2ccccc2C1=O)NC1(C(=O)O)CCCC1"
  GI50: "> 100 µM (inactive)"
- molecule: "O=C(O)c1cc2ccccc2c(/N=N/c2ccc(S(=O)(=O)Nc3nccs3)cc2)c1O"
  GI50: "> 100 µM (inactive)"
- molecule: "Cc1cc(Cl)ccc1NC(=O)CCCC(=O)C1C/C(=N/O)CC/C1=N\\O (stereo not drawn)"
  GI50: "> 100 µM (inactive)"
- molecule: "CCN1CCC(O)(c2ccc(Oc3ccccc3)cc2)C(C(=O)c2ccc(Oc3ccccc3)cc2)C1 (stereo not drawn)"
  GI50: "14.5 µM (inactive)"
- molecule: "CN(C)N1C(=O)c2ccccc2NC1c1ccccc1 (stereo not drawn)"
  GI50: "> 100 µM (inactive)"
- molecule: "CN(C)CCCSc1nc2ccccc2[nH]1"
  GI50: "> 100 µM (inactive)"
- molecule: "COc1cccc(CCCNC(=O)Cc2ccccc2CO)c1"
  GI50: "> 100 µM (inactive)"
- molecule: "COc1ccc(CNC(=O)[C@H](Cc2ccc(O)cn2)NC(C)=O)cc1OC"
  GI50: "> 100 µM (inactive)"

Reported GI50, molecule `COP(=O)(OC)[C@H](O)[C@H]1C[C@@H]1c1ccccc1` : ____
> 100 µM (inactive)

Can you share its GI50? I mean this molecule: COC(=O)C1(NC(=O)C(CC(=O)OCc2ccccc2)NC(=O)OC(C)(C)C)CC1 (stereo not drawn) (Boc-[ξD](OBn)-[Ac3c]-OMe)
> 100 µM (inactive)

Would you kindly share the measured GI50 for `COc1ccc(Sc2ccccc2N)cc1` ?
19.6 µM (inactive)

Requested read-out: GI50. Entry: CC(=O)NC1C(OC(C)C(=O)NC(C(=O)NC(CCC(=O)NCCCNC2c3ccccc3Nc3cccc([N+](=O)[O-])c32)C(N)=O)C(C)C)C(O)C(CO)OC1(C)OCc1ccccc1 (stereo not drawn)
1.91 µM (inactive)

Entry COc1cc2c(cc1OC)-c1c(cnn1C1OC(COC(C)=O)C(OC(C)=O)C(OC(C)=O)C1OC(C)=O)CC2 (stereo not drawn) has what GI50?
48.9 µM (inactive)

Returns the measured GI50 for the input molecule. Input: `CC(C)(C)c1cc2c(OP(c3ccccc3)c3ccccc3)c(c1)Cc1cc(C(C)(C)C)cc(c1OP(c1ccccc1)c1ccccc1)Cc1cc(C(C)(C)C)cc(c1OP(c1ccccc1)c1ccccc1)Cc1cc(C(C)(C)C)cc(c1OP(c1ccccc1)c1ccccc1)C2`
> 5 µM (inactive)

Field request: GI50 | item: `CC(C)Cn1cnc2c(SCc3ccc(Cl)cc3Cl)nc(N)nc21`
42.8 µM (inactive)

Request the reported GI50 associated with `CC(C)[C@H]1CO[C@]2(C)[C@@H]3CN(Cc4ccccc4)C[C@@H]3C(=O)N12`
> 100 µM (inactive)

Tell me the measured GI50 of `COc1ccc2c(ccc3c(COC(=O)NC(C)C)c(COC(=O)NC(C)C)n(C)c32)c1` , please.
4.6 µM (inactive)

Quick one: GI50 for `COc1ccc(OC)c(NC(=O)C(=O)Nn2c(S)nc3ccccc3c2=O)c1` ?
> 100 µM (inactive)
